Origin of values: patent US9012443B2

- System: Nav 1.7 (Homo sapiens (Human), UniProt Q15858)
- Sequence (Q15858 whole entry): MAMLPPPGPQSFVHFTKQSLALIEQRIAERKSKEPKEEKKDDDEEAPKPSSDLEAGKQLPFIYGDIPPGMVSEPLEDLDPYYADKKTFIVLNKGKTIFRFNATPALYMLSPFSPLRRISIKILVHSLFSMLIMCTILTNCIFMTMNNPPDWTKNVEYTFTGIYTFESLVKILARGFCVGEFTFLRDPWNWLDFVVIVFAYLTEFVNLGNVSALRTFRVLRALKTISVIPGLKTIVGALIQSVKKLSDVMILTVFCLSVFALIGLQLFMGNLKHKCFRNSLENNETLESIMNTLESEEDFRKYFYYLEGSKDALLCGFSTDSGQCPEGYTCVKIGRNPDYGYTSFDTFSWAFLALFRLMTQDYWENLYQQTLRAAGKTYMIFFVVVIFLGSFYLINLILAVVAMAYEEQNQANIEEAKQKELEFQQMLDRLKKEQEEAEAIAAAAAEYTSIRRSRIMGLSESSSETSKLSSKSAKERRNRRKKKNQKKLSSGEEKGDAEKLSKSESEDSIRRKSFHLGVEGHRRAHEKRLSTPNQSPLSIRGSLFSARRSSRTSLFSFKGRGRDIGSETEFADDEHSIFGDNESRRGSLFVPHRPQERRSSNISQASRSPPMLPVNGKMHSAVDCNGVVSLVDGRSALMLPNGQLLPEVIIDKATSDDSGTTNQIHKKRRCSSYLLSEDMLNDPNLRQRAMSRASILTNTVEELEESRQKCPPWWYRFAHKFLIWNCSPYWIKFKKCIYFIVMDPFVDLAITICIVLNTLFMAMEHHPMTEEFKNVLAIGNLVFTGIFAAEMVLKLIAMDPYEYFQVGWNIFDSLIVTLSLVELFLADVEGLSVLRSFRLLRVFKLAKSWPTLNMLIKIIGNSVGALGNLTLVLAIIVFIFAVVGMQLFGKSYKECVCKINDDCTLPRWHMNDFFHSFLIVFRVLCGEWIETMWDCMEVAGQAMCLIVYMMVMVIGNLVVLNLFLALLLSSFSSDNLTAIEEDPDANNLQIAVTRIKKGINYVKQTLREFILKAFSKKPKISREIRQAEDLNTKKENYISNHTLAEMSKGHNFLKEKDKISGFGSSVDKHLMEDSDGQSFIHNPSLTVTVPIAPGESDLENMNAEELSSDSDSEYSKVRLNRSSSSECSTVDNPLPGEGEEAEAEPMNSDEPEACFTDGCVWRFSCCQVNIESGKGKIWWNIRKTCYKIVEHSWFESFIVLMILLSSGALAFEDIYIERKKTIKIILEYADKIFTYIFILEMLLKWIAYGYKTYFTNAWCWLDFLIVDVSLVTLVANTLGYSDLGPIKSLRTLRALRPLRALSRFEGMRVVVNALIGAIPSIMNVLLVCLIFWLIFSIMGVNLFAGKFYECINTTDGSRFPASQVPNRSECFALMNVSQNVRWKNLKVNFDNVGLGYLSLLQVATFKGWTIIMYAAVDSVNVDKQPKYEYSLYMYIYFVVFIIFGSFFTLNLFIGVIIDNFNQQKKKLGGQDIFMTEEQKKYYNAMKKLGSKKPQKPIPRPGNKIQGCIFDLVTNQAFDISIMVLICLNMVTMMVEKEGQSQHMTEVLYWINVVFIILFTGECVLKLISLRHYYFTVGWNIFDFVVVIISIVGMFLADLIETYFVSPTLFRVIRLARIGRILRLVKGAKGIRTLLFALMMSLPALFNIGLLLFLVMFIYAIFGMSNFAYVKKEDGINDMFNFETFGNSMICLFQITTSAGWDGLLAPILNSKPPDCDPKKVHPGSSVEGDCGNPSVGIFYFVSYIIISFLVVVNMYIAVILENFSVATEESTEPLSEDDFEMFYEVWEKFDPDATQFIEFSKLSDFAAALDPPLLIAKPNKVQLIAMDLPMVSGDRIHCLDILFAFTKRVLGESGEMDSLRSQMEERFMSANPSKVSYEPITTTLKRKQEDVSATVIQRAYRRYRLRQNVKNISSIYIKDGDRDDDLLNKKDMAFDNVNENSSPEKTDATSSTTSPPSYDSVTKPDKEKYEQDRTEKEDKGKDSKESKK
- Experiment: Nav 1.7 in vitro PX assay (PatchXpress whole cell voltage clamp)
- Assay type: cell-based
- Assay context: 293 cells, human Nav1.7, partially inactivated state; read-out: Nav1.7 PX IC50 IP
Reported property: IC50

Compound | System | Reported property | Observed value
COc1cc(C(F)F)c(Cl)cc1-c1nccc2cc(S(=O)(=O)Nc3ccncn3)ccc12 | Nav 1.7 (Homo sapiens (Human), UniProt Q15858) | IC50 | 0.828 µM
O=S(=O)(Nc1nccs1)c1ccc2c(N3CCCC3c3ccccc3)nccc2c1 (stereo not drawn) | Nav 1.7 (Homo sapiens (Human), UniProt Q15858) | IC50 | 1.23 µM
COc1ncc(Cl)cc1-c1nccc2cc(S(=O)(=O)Nc3ccncn3)ccc12 | Nav 1.7 (Homo sapiens (Human), UniProt Q15858) | IC50 | 1.6 µM
COc1cc(-c2cccnc2C)ccc1-c1nccc2cc(S(=O)(=O)Nc3ccncn3)ccc12 | Nav 1.7 (Homo sapiens (Human), UniProt Q15858) | IC50 | 2.89 µM
COc1cc(C(F)(F)F)ccc1-c1nccc2cc(S(=O)(=O)Nc3nnc(Cl)s3)ccc12 | Nav 1.7 (Homo sapiens (Human), UniProt Q15858) | IC50 | 2.21 µM
O=S(=O)(Nc1nccs1)c1ccc2c(C3CCCN3C3CCOCC3)cccc2c1 (stereo not drawn) [Example 102, 2,2,2-TRIFLUOROACETATE] | Nav 1.7 (Homo sapiens (Human), UniProt Q15858) | IC50 | 1.54 µM
COc1ncc(Cl)cc1-c1nccc2cc(S(=O)(=O)Nc3nccs3)ccc12 | Nav 1.7 (Homo sapiens (Human), UniProt Q15858) | IC50 | 0.507 µM
O=S(=O)(Nc1nccs1)c1ccc2c(N3CCC[C@@H]3c3ccccc3)nccc2c1 | Nav 1.7 (Homo sapiens (Human), UniProt Q15858) | IC50 | 0.77 µM
COc1cc(-c2cc(F)cc(F)c2)ccc1-c1nccc2cc(S(=O)(=O)Nc3cc(C)ncn3)ccc12 | Nav 1.7 (Homo sapiens (Human), UniProt Q15858) | IC50 | 0.545 µM
COc1cc(Cl)ccc1-c1ncc(F)c2cc(S(=O)(=O)Nc3ccncn3)ccc12 | Nav 1.7 (Homo sapiens (Human), UniProt Q15858) | IC50 | 0.692 µM
COc1ccc(Cl)cc1-c1n[nH]c(=O)c2cc(S(=O)(=O)Nc3ccncn3)ccc12 | Nav 1.7 (Homo sapiens (Human), UniProt Q15858) | IC50 | 1.59 µM
COc1cc(C(F)F)ccc1-c1nccc2cc(S(=O)(=O)Nc3nccs3)ccc12 | Nav 1.7 (Homo sapiens (Human), UniProt Q15858) | IC50 | 0.313 µM
COc1cc(C(F)(F)F)ccc1-c1ncnc2cc(S(=O)(=O)Nc3nncs3)ccc12 | Nav 1.7 (Homo sapiens (Human), UniProt Q15858) | IC50 | 2.52 µM
O=S(=O)(Nc1ncns1)c1ccc2c(N3CCC[C@H]3c3cccnc3)cccc2c1 (single isomer, unassigned) | Nav 1.7 (Homo sapiens (Human), UniProt Q15858) | IC50 | 0.0627 µM
O=S(=O)(Nc1nccs1)c1ccc2c(C3CCCN3C3CCOCC3)nccc2c1 (stereo not drawn) [Example 245, 2,2,2-TRIFLUOROACETATE] | Nav 1.7 (Homo sapiens (Human), UniProt Q15858) | IC50 | 30.8 µM

----------
IC50 values, listed per item
- System: Nav 1.7 (Homo sapiens (Human), UniProt Q15858)
- Experiment: Nav 1.7 in vitro PX assay (PatchXpress whole cell voltage clamp)
- Type: cell-based
- Assay context: 293 cells, human Nav1.7, partially inactivated state; read-out: Nav1.7 PX IC50 IP
Reported property: IC50 (nM)

Compound string | Observed value
CN1CCC(c2cc(C(F)(F)F)ccc2-c2cccc3cc(S(=O)(=O)Nc4ccncn4)ccc23)CC1 | 623
COc1cc(-c2cccc(F)c2)c(Cl)cc1-c1nccc2cc(S(=O)(=O)Nc3nncs3)ccc12 | 28
O=S(=O)(Nc1ccncn1)c1ccc2c(-c3ccc(C(F)(F)F)cc3Cl)nccc2c1 | 2850
COc1cc(C(F)(F)F)ccc1-c1ccnc2cc(S(=O)(=O)Nc3nccs3)c(OC)cc12 | 2340

----------
- System: Nav 1.7 (Homo sapiens (Human))
- Experiment: Nav 1.7 IWQ in vitro assay (IonWorks Quattro population patch-clamp)
- Type: cell-based
- Assay context: 293 cells stably transfected with Nav 1.7; second part of table; read-out: Nav1.7 IWQ IC50 IP
Reported property: log10(IC50) (log10 of the value in nM)

Molecule | Observed value
O=S(=O)(Nc1nccs1)c1ccc2c(C3CCCN3C3CCOCC3)cccc2c1 (stereo not drawn) [Example 102, 2,2,2-TRIFLUOROACETATE] | 2.04
COc1ccc(-c2nccc3cc(S(=O)(=O)Nc4ccncn4)ccc23)c(OC)n1 | 2.96
C[C@@H](COc1ccc(Cl)cc1)Oc1nccc2cc(S(=O)(=O)Nc3ccncn3)ccc12 | 2.91
O=S(=O)(Nc1ncns1)c1ccc2c(N3CCCC3c3cccnc3)cccc2c1 (stereo not drawn) | 1.00
COc1cc(-c2ccccc2)ccc1-c1cccc2cc(S(=O)(=O)Nc3ccncn3)ccc12 | 2.26
COc1cc(-c2cccc(F)c2)ccc1-c1nccc2cc(S(=O)(=O)Nc3nccs3)ccc12 [Example 202, 2,2,2-TRIFLUOROACETATE] | 2.53
CN1CCC(c2cc(C(F)(F)F)ccc2-c2cccc3cc(S(=O)(=O)Nc4ccncn4)ccc23)CC1 | 1.85
O=S(=O)(Nc1ccncn1)c1ccc2c(-c3ccc(C(F)(F)F)cc3-n3ccnc3)cccc2c1 | 1.48

----------
Reported log10 IC50 values are given for each entry in this list.
- System: Nav 1.7 (Homo sapiens (Human))
- Experiment: Nav 1.7 IWQ in vitro assay (IonWorks Quattro population patch-clamp)
- Format: cell-based
- Assay context: 293 cells stably transfected with Nav 1.7; second part of table; read-out: Nav1.7 IWQ IC50 IP
Reported property: log10 IC50 (log10 of the value in µM)

Compound | log10 IC50
COc1cc(-c2cccc(C#N)c2)ccc1-c1nccc2cc(S(=O)(=O)Nc3ccncn3)ccc12 | -1.52
O=S(=O)(Nc1ccncn1)c1ccc2c(-c3cc4cc(F)ccc4[nH]3)cccc2c1 | -0.09
O=S(=O)(Nc1ncc(F)s1)c1ccc2c(-c3ccc(C(F)(F)F)cc3-n3ccnc3)cccc2c1 | -1.00
COc1cc(C#N)ccc1-c1nccc2cc(S(=O)(=O)Nc3nccs3)ccc12 | -1.70
N#CCn1c(-c2cccc3cc(S(=O)(=O)Nc4ccncn4)ccc23)cc2cc(F)ccc21 | 0.39
O=S(=O)(Nc1ncns1)c1ccc2c(N3CCC[C@H]3c3ccncc3)cccc2c1 (single isomer, unassigned) | -0.54
COc1ccncc1-c1nccc2cc(S(=O)(=O)Nc3ccncn3)ccc12 | 0.42
COc1ncc(F)cc1-c1nccc2cc(S(=O)(=O)Nc3ccncn3)ccc12 | 0.14
O=S(=O)(Nc1nccs1)c1ccc2c(C3CCCN3C3CCOCC3)nccc2c1 (stereo not drawn) [Example 245, 2,2,2-TRIFLUOROACETATE] | 0.35
COc1cc(C(F)F)ccc1-c1nccc2cc(S(=O)(=O)Nc3nccs3)ccc12 | -1.70
O=S(=O)(Nc1ccncn1)c1ccc2c(OCCCc3ccc(Cl)cc3)nccc2c1 | -0.06
COc1cc(C(F)(F)F)ccc1-c1nccc2cc(S(=O)(=O)Nc3ncccn3)ccc12 | -0.70
Cc1cc2cnn(C)c2cc1-c1nccc2cc(S(=O)(=O)Nc3ccncn3)ccc12 | 0.73
Cn1cncc1-c1cc(C(F)(F)F)ccc1-c1cccc2cc(S(=O)(=O)Nc3ccncn3)ccc12 | -1.30
O=S(=O)(Nc1nccs1)c1ccc2c([C@@H]3CCCN3C3CCOCC3)cccc2c1 | 0.20

----------
This listing pairs compounds with measured pIC50.
- System: Nav 1.7 (Homo sapiens (Human), UniProt Q15858)
- Experiment: Nav 1.7 IWQ in vitro assay (IonWorks Quattro population patch-clamp)
- Assay type: cell-based
- Assay context: 293 cells stably transfected with Nav 1.7; second part of table; read-out: Nav1.7 IWQ IC50 IP
pIC50: −log10 of the molar value.

Compound | Limit operator | pIC50
Cn1cc(CCOc2nccc3cc(S(=O)(=O)Nc4ccncn4)ccc23)cn1 [Example 305] | < | 5.00
Cc1cccc(CCCOc2nccc3cc(S(=O)(=O)Nc4ccncn4)ccc23)n1 [Example 300] | < | 5.00
COc1cc(C(F)(F)F)ccc1-c1ncc(OC)c2cc(S(=O)(=O)Nc3nccs3)ccc12 [Example 231, 2,2,2-TRIFLUOROACETATE] | = | 7.40
COc1cc(F)c(C)cc1-c1nccc2cc(S(=O)(=O)Nc3ccncn3)ccc12 [Example 154] | = | 7.40
O=S(=O)(Nc1ccncn1)c1ccc2c(OCc3nccn3Cc3ccc(Cl)cc3)nccc2c1 [Example 133] | = | 5.74
